system: Human papillomavirus type 1a E7 protein (residues 1-88); test: HPV1a E7 small-molecule binders, primary screen, biochemical, small-molecule microarray, residues 1-88, 635 nm (AID 1129); conditions: small-molecule microarray binding, fluorescence 635 nm; higher = more signal
Tick t if composite z-score is 0.04 or greater. Tick f if composite z-score is less than 0.04.

* C=C[C@H](OC)[C@@H](OC(=O)Nc1ccc(SC)cc1)c1ccc(O)c(F)c1 | f

Query: composite z-score >= 0.04 for CC(C)[C@H]1NC(=O)[C@@]23C(=O)N[C@@H](Cc4ccccc4)C2[C@H](C)[C@@]2(C)O[C@H]2C3/C=C/C/C=C\CNC(=O)[C@H](C)NC1=O (stereo partly specified) ?
Reply: f

Query: composite z-score >= 0.04 for [N-]=[N+]=NCc1ccccc1C[C@@]1(C(=O)N2CCOCC2)N=C(c2ccc(OCCCO)cc2)O[C@@H]1c1ccccc1N=[N+]=[N-] ?
Reply: t

Query: composite z-score >= 0.04 for COC(=O)Cn1c(C(=O)N2CCCC2)cc2c1C[C@H]1CN(C(=O)c3ccccc3)[C@@](Cc3ccccc3)(C(=O)OC)[C@@H]21 ?
Reply: t

Query: composite z-score >= 0.04 for CC(C)(C)OC(=O)CC[C@@]1(C(=O)NCc2ccccc2)N=C(c2ccc(OCCCO)cc2)O[C@@H]1c1ccccc1 ?
Reply: t

Query: composite z-score >= 0.04 for CCCCCCc1nc(-c2cc(C)c(OC)c(C)c2)cc2c1[Si](C(C)C)(C(C)C)O[C@H]2c1ccccc1 ?
Reply: f

Query: composite z-score >= 0.04 for O=C1O[C@@H](c2ccccc2)[C@@H](c2ccccc2)N2[C@@H](c3ccc(OCCO)cc3)[C@]3(C(=O)Nc4ccc(C#CCCO)cc43)[C@@H](C(=O)N3CCN(c4ncccn4)CC3)[C@H]12 ?
Reply: t

Query: composite z-score >= 0.04 for O=C1c2ccccc2[C@@]2(Cc3ccccc3N(CC(F)(F)F)C2=O)[C@H](c2ccc(CO)cc2)N1C1CCCCC1 ?
Reply: f

Query: composite z-score >= 0.04 for CCCC=C(CCC)[C@@H](NS(=O)(=O)c1ccc(C(F)(F)F)cc1)c1ccc(-c2ccccc2)cc1 ?
Reply: t

Query: composite z-score >= 0.04 for C[N+](C)(C)CCCCNC(=O)[C@H]1C[C@H]2C(=O)NCC(=O)N2[C@H]1c1cccc(OCCO)c1 ?
Reply: t

Query: composite z-score >= 0.04 for C[C@@H]1NC(=O)[C@H](Cc2ccccc2)NC(=O)[C@@]23C(=O)N[C@@H](Cc4ccccc4)C2[C@H](C)[C@@]2(C)O[C@H]2C3/C=C/C/C=C\CNC1=O (stereo partly specified) ?
Reply: f

Query: composite z-score >= 0.04 for CC(C)N1CC=CC23O[C@@H]4/C=C\CCCOC(=O)C4[C@H]2C(=O)N(CCCCCO)[C@@H]3C1=O (stereo partly specified) ?
Reply: f

Query: composite z-score >= 0.04 for O=C(NCc1ccccc1)c1ccc(Br)cc1[N+](=O)[O-] ?
Reply: t

====

Answer each item with its documented z-score.
experiment: modulators of HCV replicon luciferase signal, primary screen, HCV replication inhibitor project, Huh7 cells, luciferase reporter (AID 1109); conditions: 48 h, higher = more signal;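 also: huh7 hepatoma cells harbouring a luciferase neomycin HCV replicon reporter; luciferase luminescence as measure of HCV replicon replication; test concentration not given here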
Numbers only.

These recorded examples may help you get a feel for the data.
• C[C@H]1NC(=O)[C@@H](C)NC(=O)[C@@]23C(=O)N[C@@H](Cc4ccccc4)C2[C@H](C)[C@@]2(C)O[C@H]2C3/C=C/C/C=C\CNC1=O (stereo partly drawn) = -0.175
• CCCCCCc1nc(-c2cc(C)c(OC)c(C)c2)cc2c1[Si](C(C)C)(C(C)C)O[C@H]2c1ccccc1 = 0.115
• Cc1ccc(N2C(=O)c3ccccc3[C@@H](C(=O)NCc3ccccc3)[C@@H]2c2ccc(CO)cc2)nc1 = -0.139
• O=C1C2C=CC(C(O)C(c3ccccc3)c3ccccc3)N(Nc3ccc([N+](=O)[O-])cc3)C2C(=O)N1c1ccccc1 (stereo not drawn) = -0.871
• C=CC[C@]1(C(N)=O)N=C(c2ccc(OCCCO)cc2)O[C@H]1c1ccccc1CN=[N+]=[N-] = -1.33
• CO[C@H]1COC(=O)[C@@H](Cc2ccccc2)NC(=O)[C@@H](C)COC(=O)CC=C[C@@H]1C = 0.413
• COc1ccc([Si](C)(C)[C@H]2[C@H](CCO)O[C@@]3(C(=O)N(Cc4ccc(N5CCCCC5=O)cc4)c4ccccc43)[C@@H]2C)cc1 = -4.77
• [N-]=[N+]=Nc1ccccc1C[C@@]1(C(=O)N2CCOCC2)N=C(c2ccc(OCCCO)cc2)O[C@@H]1c1ccccc1N=[N+]=[N-] = -2.29
• CC(C)N1CC=CC23O[C@@H]4/C=C\CCCOC(=O)C4[C@H]2C(=O)N(CCCCCO)[C@@H]3C1=O (stereo partly drawn) = 0.0844
• C[C@@H]1NC(=O)[C@H](Cc2ccccc2)NC(=O)[C@@]23C(=O)N[C@@H](Cc4ccccc4)C2[C@H](C)[C@@]2(C)O[C@H]2C3/C=C/C/C=C\CNC1=O (stereo partly drawn) = -1.06

Working through the 3 compounds below one at a time, give z-score for each.
1. CCC#CCN(Cc1ccccc1Br)[C@H](/C=C/c1ccccc1)[C@@H](O)Cc1ccccc1
2. COc1cc2c(cc1OC)CN(C(=O)[C@H]1[C@@H]3C(=O)O[C@@H](c4ccccc4)[C@@H](c4ccccc4)N3[C@@H](c3ccccc3OCCO)[C@]13C(=O)Nc1ccc(C#CC4(O)CCCCCC4)cc13)CC2
3. COCCOC(=O)N1C(=O)[C@@]2(c3cc(C#CC4=CCCCC4)ccc31)[C@H](c1ccc(O)cc1)N1[C@H](c3ccccc3)[C@H](c3ccccc3)OC(=O)[C@H]1[C@@H]2C(=O)N1CCCCCCC1

Reply:
1: -2.58; 2: -2.36; 3: -0.387

====

Answer each item with its documented composite z-score.
molecular target: Fibroblast growth factor 10 (Homo sapiens) (UniProt O15520); assay: FGF10 binders on small-molecule microarrays, primary screen, biochemical, small-molecule microarray, 635 nm fluorescence (AID 1102); details: FGF10 binding, fluorescence 635 nm, higher = more signal
Sequence (O15520 whole entry, looked up): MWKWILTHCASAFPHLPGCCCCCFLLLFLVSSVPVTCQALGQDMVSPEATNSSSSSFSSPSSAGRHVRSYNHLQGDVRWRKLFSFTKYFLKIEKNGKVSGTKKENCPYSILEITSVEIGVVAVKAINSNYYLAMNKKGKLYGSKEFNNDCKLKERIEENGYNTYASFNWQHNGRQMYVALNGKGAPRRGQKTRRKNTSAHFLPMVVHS
One number for each entry.

These recorded examples may help you get a feel for the data.
• C=CCNC(=O)[C@H]1[C@@H]2C(=O)O[C@@H](c3ccccc3)[C@@H](c3ccccc3)N2[C@@H](c2ccccc2OCCO)[C@]12C(=O)N(C(=O)OCCOC)c1ccc(C#CCNC(N)=O)cc12 = 0.471
• [N-]=[N+]=NCc1ccccc1C[C@@]1(C(=O)O)N=C(c2ccc(OCCCO)cc2)O[C@@H]1c1ccccc1N=[N+]=[N-] = 0.479
• C=CCOC(=O)[C@@H]1[C@H]2C(=O)O[C@H](c3ccccc3)[C@H](c3ccccc3)N2[C@H](c2ccc(OCCOC(=O)[C@H]3C[C@H]4C(=O)N[C@@H](CCCCNC(C)=O)C(=O)N4[C@H]3c3ccc(O)cc3)cc2)[C@@]12C(=O)Nc1ccc(I)cc12 = 1.03
• O=C1c2ccccc2[C@](Cc2ccccc2I)(C(=O)O)[C@H](c2ccc(CO)cc2)N1C1CCCCC1 = 1.28
• C=CC[C@]1(C(=O)N2CCCCC2)N=C(c2ccc(OCCCO)cc2)O[C@H]1c1ccccc1N=[N+]=[N-] = 0.975

Working through the 8 compounds below one at a time, give composite z-score for each.
1. COc1cc(CO)cc(I)c1O[C@H]1C=C(C(=O)NCCO)C[C@@H](NCCc2c[nH]c3ccccc23)[C@@H]1O
2. CN1C(=O)C2C=CC(C(O)C3CC=CCC3)N(Nc3ccccc3)C2C1=O (centres undefined)
3. CN(C)CCCC[C@@H]1NC(=O)[C@@H]2C[C@H](C(=O)NCCCCCNC(=O)CS)[C@H](c3ccc(O)cc3)N2C1=O
4. C=C(COC)/C(=C/C[C@@H](OC(C)=O)c1cccc(OCCO)c1)c1cc(C(=O)OC)ccc1OC
5. Cc1ccc(S[C@]2(C(=O)NC(C)C)CC(=O)N(C3Cc4ccccc4C3)[C@@H]2c2ccc(CO)cc2)cc1
6. COc1cc2c(cc1OC)CN(C(=O)[C@H]1[C@@H]3C(=O)O[C@@H](c4ccccc4)[C@@H](c4ccccc4)N3[C@@H](c3ccccc3OCCO)[C@]13C(=O)Nc1ccc(C#CC4(O)CCCCCC4)cc13)CC2
7. CCCC=C(CCC)[C@@H](NS(=O)(=O)c1ccc(C(F)(F)F)cc1)c1ccc(-c2ccccc2)cc1
8. CC(C)C[C@@H]1NC(=O)[C@H]2C[C@@H](C(=O)NCCCCCC[N+](C)(C)C)[C@@H](c3ccc(O)cc3)N2C1=O

Reply:
[1.06, 0.989, 1.11, 0.0556, -0.258, 1.06, 1.13, -0.563]

Query: Report measured composite z-score; entry is CCCC=C(CCC)[C@@H](NC(=O)c1ccccc1)c1ccccc1
Reply: -0.0829
